Numbers sourced from the NIST ThermoML archive (doi:10.1021/je900660x).

# particulars: 363.15 K; 101.33 kPa; Liquid; Vibrating tube method
property: mass density (kg/m3)

CCCC[P+](CCCC)(CCCC)CCCC.N[C@@H](CO)C(=O)[O-] [tetrabutylphosphonium L-serinate]
953
CCCC[P+](CCCC)(CCCC)CCCC.N[C@@H](CS)C(=O)[O-] [tetrabutylphosphonium L-cysteinate]
993
CCCC[P+](CCCC)(CCCC)CCCC.C[C@@H](O)[C@H](N)C(=O)[O-] [tetrabutylphosphonium L-threoninate]
940.7
CC(C)[C@H](N)C(=O)[O-].CCCC[P+](CCCC)(CCCC)CCCC [tetrabutylphosphonium L-valinate]
902.1
CCCC[P+](CCCC)(CCCC)CCCC.O=C([O-])[C@@H]1CCCN1 [tetrabutylphosphonium L-prolinate]
952.6
CCCC[P+](CCCC)(CCCC)CCCC.NCCCC[C@H](N)C(=O)[O-] [tetrabutylphosphonium L-lysinate]
928.6
CCCC[P+](CCCC)(CCCC)CCCC.NCCS(=O)(=O)[O-] [tetrabutylphosphonium 2-aminoethanesulfonate]
987.3
CCCC[N+](C)(CCCC)CCCC.NCCCC[C@H](N)C(=O)[O-] [N,N-dibutyl-N-methyl-1-butanaminium L-lysinate]
940.8
CCCC[N+](C)(CCCC)CCCC.NCCS(=O)(=O)[O-] [N,N-dibutyl-N-methyl-1-butanaminium 2-aminoethanesulfonate]
1012.1
CCCC[N+](C)(CCCC)CCCC.C[C@@H](O)[C@H](N)C(=O)[O-] [N,N-dibutyl-N-methyl-1-butanaminium L-threoninate]
959.8
CCCC[N+](C)(CCCC)CCCC.N[C@@H](CO)C(=O)[O-] [N,N-dibutyl-N-methylbutanaminium L-serinate]
975.6

* * *

# particulars: 293.15 K; 101.33 kPa; Liquid; Vibrating tube method
property: mass density (kg/m3)

CCCC[N+](C)(CCCC)CCCC.NCCCC[C@H](N)C(=O)[O-] [N,N-dibutyl-N-methyl-1-butanaminium L-lysinate]
982.9
CCCC[P+](CCCC)(CCCC)CCCC.O=C([O-])[C@@H]1CCCN1 [tetrabutylphosphonium L-prolinate]
995.7
CCCC[P+](CCCC)(CCCC)CCCC.NCCCC[C@H](N)C(=O)[O-] [tetrabutylphosphonium L-lysinate]
970.5
CCCC[N+](C)(CCCC)CCCC.C[C@@H](O)[C@H](N)C(=O)[O-] [N,N-dibutyl-N-methyl-1-butanaminium L-threoninate]
1002.6
CCCC[P+](CCCC)(CCCC)CCCC.N[C@@H](CO)C(=O)[O-] [tetrabutylphosphonium L-serinate]
995.5
CCCC[N+](C)(CCCC)CCCC.NCCS(=O)(=O)[O-] [N,N-dibutyl-N-methyl-1-butanaminium 2-aminoethanesulfonate]
1054.1

* * *

# particulars: 353.15 K; 101.33 kPa; Liquid; Hot wire method
property: thermal conductivity (W/m/K)

CCCC[N+](C)(CCCC)CCCC.C[C@@H](O)[C@H](N)C(=O)[O-] [N,N-dibutyl-N-methyl-1-butanaminium L-threoninate]
0.154
CCCC[P+](CCCC)(CCCC)CCCC.NCCCC[C@H](N)C(=O)[O-] [tetrabutylphosphonium L-lysinate]
0.158
CCCC[N+](C)(CCCC)CCCC.N[C@@H](CO)C(=O)[O-] [N,N-dibutyl-N-methylbutanaminium L-serinate]
0.163
CCCC[P+](CCCC)(CCCC)CCCC.O=C([O-])[C@@H]1CCCN1 [tetrabutylphosphonium L-prolinate]
0.148

* * *

# particulars: 303.15 K; 101.33 kPa; Liquid
property: viscosity (mPa·s)

CCCC[P+](CCCC)(CCCC)CCCC.NCCCC[C@H](N)C(=O)[O-] [tetrabutylphosphonium L-lysinate]
519.8
CCCC[N+](C)(CCCC)CCCC.N[C@@H](CO)C(=O)[O-] [N,N-dibutyl-N-methylbutanaminium L-serinate]
5845
CCCC[N+](C)(CCCC)CCCC.NCCS(=O)(=O)[O-] [N,N-dibutyl-N-methyl-1-butanaminium 2-aminoethanesulfonate]
3965

(I) CCCC[P+](CCCC)(CCCC)CCCC.NCCS(=O)(=O)[O-] [tetrabutylphosphonium 2-aminoethanesulfonate]
(II) CCCC[N+](C)(CCCC)CCCC.C[C@@H](O)[C@H](N)C(=O)[O-] [N,N-dibutyl-N-methyl-1-butanaminium L-threoninate]
(III) CCCC[N+](C)(CCCC)CCCC.NCCCC[C@H](N)C(=O)[O-] [N,N-dibutyl-N-methyl-1-butanaminium L-lysinate]
Sort (3 compounds) by viscosity: min first. Order the labels as requested and give them as your answer.
I, III, II
(I: 712.6 mPa·s, III: 1679 mPa·s, II: 4916 mPa·s)

* * *

# procedure text: molar heat capacity at constant pressure
# particulars: 293.15 K; 101.33 kPa; Liquid; Large sample (1 g) DSC
property: molar heat capacity at constant pressure (J/K/mol)

Consider the worked cases shown below.
CCCC[N+](C)(CCCC)CCCC.NCCCC[C@H](N)C(=O)[O-] [N,N-dibutyl-N-methyl-1-butanaminium L-lysinate]
817.3
CCCC[P+](CCCC)(CCCC)CCCC.N[C@@H](CS)C(=O)[O-] [tetrabutylphosphonium L-cysteinate]
913.7
CCCC[P+](CCCC)(CCCC)CCCC.NCCS(=O)(=O)[O-] [tetrabutylphosphonium 2-aminoethanesulfonate]
987.7
CC(C)[C@H](N)C(=O)[O-].CCCC[P+](CCCC)(CCCC)CCCC [tetrabutylphosphonium L-valinate]
743.7
CCCC[P+](CCCC)(CCCC)CCCC.C[C@@H](O)[C@H](N)C(=O)[O-] [tetrabutylphosphonium L-threoninate]
952.2
CCCC[N+](C)(CCCC)CCCC.C[C@@H](O)[C@H](N)C(=O)[O-] [N,N-dibutyl-N-methyl-1-butanaminium L-threoninate]
748.5

(A) CCCC[P+](CCCC)(CCCC)CCCC.NCCCC[C@H](N)C(=O)[O-] [tetrabutylphosphonium L-lysinate]
(B) CCCC[N+](C)(CCCC)CCCC.N[C@@H](CO)C(=O)[O-] [N,N-dibutyl-N-methylbutanaminium L-serinate]
Please indicate which entry, A or B , has the lower recorded molar heat capacity at constant pressure value. Identify your pick by its label.
B

* * *

# procedure text: molar heat capacity at constant pressure
# particulars: 303.15 K; 101.33 kPa; Liquid; Large sample (1 g) DSC
property: molar heat capacity at constant pressure (J/K/mol)

CCCC[P+](CCCC)(CCCC)CCCC.O=C([O-])[C@@H]1CCCN1 [tetrabutylphosphonium L-prolinate]
850.4
CCCC[N+](C)(CCCC)CCCC.N[C@@H](CO)C(=O)[O-] [N,N-dibutyl-N-methylbutanaminium L-serinate]
637.6
CCCC[P+](CCCC)(CCCC)CCCC.NCCS(=O)(=O)[O-] [tetrabutylphosphonium 2-aminoethanesulfonate]
1001.6
CCCC[N+](C)(CCCC)CCCC.NCCS(=O)(=O)[O-] [N,N-dibutyl-N-methyl-1-butanaminium 2-aminoethanesulfonate]
831.7

* * *

# particulars: 303.15 K; 101.33 kPa; Liquid; Hot wire method
property: thermal conductivity (W/m/K)

CCCC[N+](C)(CCCC)CCCC.NCCCC[C@H](N)C(=O)[O-] [N,N-dibutyl-N-methyl-1-butanaminium L-lysinate]
0.17
CCCC[N+](C)(CCCC)CCCC.C[C@@H](O)[C@H](N)C(=O)[O-] [N,N-dibutyl-N-methyl-1-butanaminium L-threoninate]
0.159
CCCC[P+](CCCC)(CCCC)CCCC.C[C@@H](O)[C@H](N)C(=O)[O-] [tetrabutylphosphonium L-threoninate]
0.155
CCCC[P+](CCCC)(CCCC)CCCC.O=C([O-])[C@@H]1CCCN1 [tetrabutylphosphonium L-prolinate]
0.153
CCCC[P+](CCCC)(CCCC)CCCC.NCCCC[C@H](N)C(=O)[O-] [tetrabutylphosphonium L-lysinate]
0.163
CCCC[N+](C)(CCCC)CCCC.N[C@@H](CO)C(=O)[O-] [N,N-dibutyl-N-methylbutanaminium L-serinate]
0.168
CCCC[P+](CCCC)(CCCC)CCCC.N[C@@H](CS)C(=O)[O-] [tetrabutylphosphonium L-cysteinate]
0.151

* * *

# particulars: 353.15 K; 101.33 kPa; Liquid
property: viscosity (mPa·s)

// worked examples, viscosity included
CCCC[P+](CCCC)(CCCC)CCCC.O=C([O-])[C@@H]1CCCN1 [tetrabutylphosphonium L-prolinate]
49.6
CCCC[P+](CCCC)(CCCC)CCCC.C[C@@H](O)[C@H](N)C(=O)[O-] [tetrabutylphosphonium L-threoninate]
36.2

(a) CCCC[N+](C)(CCCC)CCCC.NCCS(=O)(=O)[O-] [N,N-dibutyl-N-methyl-1-butanaminium 2-aminoethanesulfonate]
(b) CCCC[P+](CCCC)(CCCC)CCCC.NCCS(=O)(=O)[O-] [tetrabutylphosphonium 2-aminoethanesulfonate]
Given the listed items, does a or b have the lesser reported viscosity? Selection: enter the item's label.
b
(b: 44.2 mPa·s, a: 108.2 mPa·s)

* * *

# particulars: 343.15 K; 101.33 kPa; Liquid; Vibrating tube method
property: mass density (kg/m3)

CCCC[N+](C)(CCCC)CCCC.C[C@@H](O)[C@H](N)C(=O)[O-] [N,N-dibutyl-N-methyl-1-butanaminium L-threoninate]
971.7
CC(C)[C@H](N)C(=O)[O-].CCCC[P+](CCCC)(CCCC)CCCC [tetrabutylphosphonium L-valinate]
913.9
CCCC[P+](CCCC)(CCCC)CCCC.NCCCC[C@H](N)C(=O)[O-] [tetrabutylphosphonium L-lysinate]
940.3
CCCC[P+](CCCC)(CCCC)CCCC.NCCS(=O)(=O)[O-] [tetrabutylphosphonium 2-aminoethanesulfonate]
999.2
CCCC[P+](CCCC)(CCCC)CCCC.N[C@@H](CS)C(=O)[O-] [tetrabutylphosphonium L-cysteinate]
1005.4
CCCC[P+](CCCC)(CCCC)CCCC.C[C@@H](O)[C@H](N)C(=O)[O-] [tetrabutylphosphonium L-threoninate]
952.5
CCCC[P+](CCCC)(CCCC)CCCC.O=C([O-])[C@@H]1CCCN1 [tetrabutylphosphonium L-prolinate]
964.6
CCCC[N+](C)(CCCC)CCCC.NCCCC[C@H](N)C(=O)[O-] [N,N-dibutyl-N-methyl-1-butanaminium L-lysinate]
952.7
CCCC[N+](C)(CCCC)CCCC.NCCS(=O)(=O)[O-] [N,N-dibutyl-N-methyl-1-butanaminium 2-aminoethanesulfonate]
1023.9
CCCC[N+](C)(CCCC)CCCC.N[C@@H](CO)C(=O)[O-] [N,N-dibutyl-N-methylbutanaminium L-serinate]
987.9
CCCC[P+](CCCC)(CCCC)CCCC.N[C@@H](CO)C(=O)[O-] [tetrabutylphosphonium L-serinate]
964.8
